Would you mind telling me the reported plasma half-life (T1/2) of each entry?
Assay: Determination of inhibitor concentration in mouse plasma after intraperitoneal and oral dosing
Assay type: in vivo
Conditions: IP, 25 mg/kg, vehicle PEG400:H2O pH 2.3 60:40
Only the number, expressed in h, is required.

# input GET /values?readout=plasma half-life (T1/2)&item= O=C(Nc1cccc(Cl)c1)c1ccccc1Sc1ccc2c(/C=C/c3ccccn3)n[nH]c2c1 [Example 33(d)]
# output 1.6

# input GET /values?readout=plasma half-life (T1/2)&item= Cc1ccc2cc(NC(=O)c3ccccc3Sc3ccc4c(/C=C/c5ccccn5)n[nH]c4c3)ccc2n1 [Example 33(b)]
# output 3.0

# input GET /values?readout=plasma half-life (T1/2)&item= O=C(Nc1cccc(C(=O)c2ccc3c(-c4nc5cccnc5[nH]4)n[nH]c3c2)c1)c1ccccc1 [Example 42(d)]
# output 1.4

# input GET /values?readout=plasma half-life (T1/2)&item= O=C(Nc1cccc(C(=O)c2ccc3c(/C=C/c4ccccn4)n[nH]c3c2)c1)c1ccncc1 [Example 41(b)]
# output 4.7

# input GET /values?readout=plasma half-life (T1/2)&item= Cc1cc(C(=O)Nc2cccc(C(=O)c3ccc4c(/C=C/c5ccccn5)n[nH]c4c3)c2)n[nH]1 [Example 41(g)]
# output 0.3

# input GET /values?readout=plasma half-life (T1/2)&item= O=C(c1cccc(NC(=O)c2cccc3[nH]ccc23)c1)c1ccc2c(/C=C/c3ccccn3)n[nH]c2c1 [Example 41(d)]
# output 2.8

# input GET /values?readout=plasma half-life (T1/2)&item= C/C=C/C(=O)Nc1cccc(C(=O)c2ccc3c(/C=C/c4ccccn4)n[nH]c3c2)c1 [Example 41(c)]
# output 1.7

# input GET /values?readout=plasma half-life (T1/2)&item= O=C(c1cccc(NC(=O)c2ccccn2)c1)c1ccc2c(/C=C/c3ccccc3)n[nH]c2c1 [Example 19(k)]
# output 2.2

# input GET /values?readout=plasma half-life (T1/2)&item= CC(=O)c1ccc(C(=O)Nc2cccc(C(=O)c3ccc4c(/C=C/c5ccccn5)n[nH]c4c3)c2)s1 [Example 41(e)]
# output 1.6

# input GET /values?readout=plasma half-life (T1/2)&item= O=C(Nc1cccc(C(=O)c2ccc3c(-c4nc5ccccc5[nH]4)n[nH]c3c2)c1)c1ccccc1 [Example 42(b)]
# output 3.0

# input GET /values?readout=plasma half-life (T1/2)&item= O=C(c1cccc(NC(=O)c2ccccn2)c1)c1ccc2c(/C=C/c3ccccn3)n[nH]c2c1 [Example 41(aa)]
# output 2.1

# input GET /values?readout=plasma half-life (T1/2)&item= O=C(Nc1cccc(C(=O)c2ccc3c(/C=N/n4cccc4)n[nH]c3c2)c1)c1ccccc1 [Example 45(b)]
# output 2.0

# input GET /values?readout=plasma half-life (T1/2)&item= O=C(Nc1cccc(C(=O)c2ccc3c(/C=C/c4ccccc4)n[nH]c3c2)c1)c1ccncc1 [Example 19(j)]
# output 1.6

# input GET /values?readout=plasma half-life (T1/2)&item= O=C(Nc1cccc(C(=O)c2ccc3c(/C=C/c4ccccn4)n[nH]c3c2)c1)c1ccccc1 [Example 42(a)]
# output 5.0

* * *

Assay: Determination of inhibitor concentration in mouse plasma after intraperitoneal and oral dosing
Type: in vivo
Conditions: PO, 25 mg/kg, vehicle PEG400:H2O pH 2.3 30:70
Would you mind telling me the reported AUClast of each entry?
Only the number, expressed in ng·h/mL, is required.

# input GET /values?readout=AUClast&item= Cc1cc(C(=O)Nc2cc(C(=O)c3ccc4c(/C=C/c5ccccn5)n[nH]c4c3)ccc2C)n(C(C)C)n1 [Example 41(kk)]
# output 11612

# input GET /values?readout=AUClast&item= C=C(C)CNC(=O)c1ccccc1Sc1ccc2c(/C=C/c3ccccn3)n[nH]c2c1 [Example 35(ee)]
# output 157

# input GET /values?readout=AUClast&item= COc1ccc(CNC(=O)c2ccccc2Sc2ccc3c(/C=C/c4ccccn4)n[nH]c3c2)cc1 [Example 35(g)]
# output 231

# input GET /values?readout=AUClast&item= O=C(NCCc1cccs1)c1ccccc1Sc1ccc2c(/C=C/c3ccccn3)n[nH]c2c1 [Example 35(hh)]
# output 292

# input GET /values?readout=AUClast&item= CC(C)=CC(=O)Nc1cccc(C(=O)c2ccc3c(/C=C/c4ccccn4)n[nH]c3c2)c1 [Example 41(dd)]
# output 654

# input GET /values?readout=AUClast&item= CONC(=O)c1ccccc1Sc1ccc2c(/C=C/c3ccccn3)n[nH]c2c1 [Example 35(r)]
# output 4261

# input GET /values?readout=AUClast&item= CCc1cc(C(=O)Nc2cccc(C(=O)c3ccc4c(/C=C/c5ccccn5)n[nH]c4c3)c2)n(C)n1 [Example 41(v)]
# output 10949

# input GET /values?readout=AUClast&item= CN(O)C(=O)c1ccccc1Sc1ccc2c(/C=C/c3ccccn3)n[nH]c2c1 [Example 35(o)]
# output 683

# input GET /values?readout=AUClast&item= Cc1cc(C(=O)Nc2cc(C(=O)c3ccc4c(/C=C/c5ccccn5)n[nH]c4c3)c(C)cc2C)n(C)n1 [Example 41(mm)]
# output 2261

# input GET /values?readout=AUClast&item= CC(C)ONC(=O)c1cccc(F)c1Sc1ccc2c(/C=C/c3ccccn3)n[nH]c2c1 [Example 37(c)]
# output 2419

# input GET /values?readout=AUClast&item= Cc1cc(C(=O)Nc2cc(Nc3ccc4c(/C=C/c5ccccn5)n[nH]c4c3)ccc2C)n(C)n1 [Example 49(b)]
# output 33750

# input GET /values?readout=AUClast&item= Cc1cc(C(=O)Nc2cc(Nc3ccc4c(/C=C/c5ccccn5)n[nH]c4c3)ccc2F)n(C)n1 [Example 49(a)]
# output 712

# input GET /values?readout=AUClast&item= CCCn1nc(C)cc1C(=O)Nc1cc(C(=O)c2ccc3c(/C=C/c4ccccn4)n[nH]c3c2)ccc1C [Example 41(ii)]
# output 7094

# input GET /values?readout=AUClast&item= Cc1cc(C(=O)Nc2cc(C(=O)c3ccc4c(/C=C/c5ccccn5)n[nH]c4c3)ccc2C)n(C)n1 [Example 41(hh)]
# output 5601

# input GET /values?readout=AUClast&item= COc1cccc(CNC(=O)c2ccccc2Sc2ccc3c(/C=C/c4ccccn4)n[nH]c3c2)c1 [Example 35(aa)]
# output 4036

# input GET /values?readout=AUClast&item= CCCONC(=O)c1ccccc1Sc1ccc2c(/C=C/c3ccccn3)n[nH]c2c1 [Example 35(t)]
# output 3199

# input GET /values?readout=AUClast&item= Cc1cnccc1C(=O)Nc1cccc(C(=O)c2ccc3c(/C=C/c4ccccn4)n[nH]c3c2)c1 [Example 41(j)]
# output 1476

# input GET /values?readout=AUClast&item= CCn1nc(C)cc1C(=O)Nc1cccc(Oc2ccc3c(/C=C/c4ccccn4)n[nH]c3c2)c1 [Example 31(d)]
# output 203860

# input GET /values?readout=AUClast&item= O=C(NNc1ccccn1)c1ccccc1Sc1ccc2c(/C=C/c3ccccn3)n[nH]c2c1 [Example 35(n)]
# output 4818

# input GET /values?readout=AUClast&item= COc1cc(C(=O)Nc2cccc(C(=O)c3ccc4c(/C=C/c5ccccn5)n[nH]c4c3)c2)cc(Cl)n1 [Example 41(u)]
# output 875

# input GET /values?readout=AUClast&item= Cc1cc(C(=O)Nc2cccc(C(=O)c3ccc4c(/C=C/c5ccccn5)n[nH]c4c3)c2)n(C(C)C)n1 [Example 41(x)]
# output 24174
